target_or_test_system: T1, CLDN18.2 endogenously expressed on SNU620 gastric cancer cells (UniProt P56856-2 1-261, limits assumed)
T1 construct: whole, on cells; also called SU620
procedure_summary: FACS Exp. 3, SNU620 cells
recorded_metric: MFI_SNU620 (@30 ug/ml) (MFI)
Numeric only. Scale: MFI

Asked: Please report the recorded MFI_SNU620 (@30 ug/ml) for hz282-11 (antibody, V domains shown, humanized IgG; constant regions not specified; also called humanized 282A12(T62A) (hz282-11)) VH: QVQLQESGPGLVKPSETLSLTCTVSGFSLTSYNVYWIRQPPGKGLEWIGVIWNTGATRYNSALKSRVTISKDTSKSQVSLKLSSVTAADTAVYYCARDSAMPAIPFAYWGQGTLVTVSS VL: DIQMTQSPSSLSASVGDRVTITCKSSQSLFGSVRQKNYLAWYQQKPGKAPKLLIYLASTRESGVPSRFSGSGSGTDFTLTISSLQPEDFATYYCQQYYDIPWTFGGGTKVEIK .
Given back: 1340
